Could you please report measured log10(IC50) for the items listed next?
Tested on: stomach cancer cell (SC-M1)
Assay: Cytotoxic assay by colorimetric MTT assay (growth inhibition), stomach cancer
Format: cell-based, human
Settings: Homo sapiens, 72 h; SC-M1; 10000 cells per well; 3 days incubation; mean of 4 experiments
A difference of one corresponds to tenfold IC50; all values are log10 with IC50 in µM.

CC(C)CC(Cc1ccc(O)cn1)(NC(=O)c1ccccc1)C(=O)O (racemic) :: 3.08
CC(C)CC(Cc1ccc(O)cn1)(NC(=O)c1ccccc1)C(=O)N[C@@H](C)c1ccccc1 (mixture of isomers) [Compound 10b] :: 2.48
N[C@@H](Cc1ccc(O)cn1)C(=O)O :: 3.20
CC(Cc1ccc(O)cn1)(NC(=O)c1ccccc1)C(=O)O (racemic) :: 2.90

State the recorded log10(IC50) for every item in the following list.
1. CCOC(=O)C(Cc1ccc(O)cn1)(CC(C)C)NC(=O)c1ccccc1 (racemic)
2. O=C(NC(Cc1ccccc1)(Cc1ccc(O)cn1)C(=O)O)c1ccccc1 (racemic)
3. CCOC(=O)C(Cc1ccccc1)(Cc1ccc(O)cn1)NC(=O)c1ccccc1 (racemic)
4. C[C@H](NC(=O)C(Cc1ccccc1)(Cc1ccc(O)cn1)NC(=O)c1ccccc1)c1ccccc1 (mixture of isomers) [Compound 10c]

1. 2.78
2. 2.78
3. 3.00
4. 1.90
